FYI, the data here is from paper PMC10709440.

system: Drosophila OR85b (Drosophila melanogaster, UniProt Q9VHQ7)
Construct: expressed in transfected cells
Sequence (Q9VHQ7 whole entry): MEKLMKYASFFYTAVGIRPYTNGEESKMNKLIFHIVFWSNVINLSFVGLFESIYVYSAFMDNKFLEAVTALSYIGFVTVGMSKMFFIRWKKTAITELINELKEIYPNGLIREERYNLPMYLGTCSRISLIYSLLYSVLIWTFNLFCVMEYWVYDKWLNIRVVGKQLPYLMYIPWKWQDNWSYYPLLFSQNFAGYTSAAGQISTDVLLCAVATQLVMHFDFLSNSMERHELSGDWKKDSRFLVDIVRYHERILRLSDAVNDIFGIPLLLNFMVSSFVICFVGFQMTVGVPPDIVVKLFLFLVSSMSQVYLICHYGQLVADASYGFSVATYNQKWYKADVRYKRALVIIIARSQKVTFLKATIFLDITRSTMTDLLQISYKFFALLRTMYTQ
Sequence (Q9VNB5 whole entry partner): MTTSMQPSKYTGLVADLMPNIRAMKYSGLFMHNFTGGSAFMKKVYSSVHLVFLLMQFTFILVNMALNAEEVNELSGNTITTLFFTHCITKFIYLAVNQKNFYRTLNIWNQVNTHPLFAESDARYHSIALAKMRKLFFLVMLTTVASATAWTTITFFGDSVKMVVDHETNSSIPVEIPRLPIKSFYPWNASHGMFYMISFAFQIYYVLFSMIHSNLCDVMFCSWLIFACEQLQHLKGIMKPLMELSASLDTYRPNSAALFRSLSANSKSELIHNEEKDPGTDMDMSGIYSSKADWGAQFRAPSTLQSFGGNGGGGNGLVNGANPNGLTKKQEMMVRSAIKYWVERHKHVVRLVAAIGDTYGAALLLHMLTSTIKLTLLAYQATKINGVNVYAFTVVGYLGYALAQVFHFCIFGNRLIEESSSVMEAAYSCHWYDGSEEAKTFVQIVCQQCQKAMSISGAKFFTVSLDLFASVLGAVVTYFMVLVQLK
measurement-description: Calcium ion fluorescence (GCaMP6) assay, OR85b stable HEK293 cell line
Format: cell-based
details: VOC concentration 10 μM
measure: OR85b response (VUAA1-normalized response)
Write the number on its own, no unit after it.

Example cases with answers are listed next.
> print(dat)
                                   compound  readout.value
1                  CC/C=C\CCO [E-3-hexenol]           0.00
2  CC1=CCC[C@@]2(C)[C@@H]3CC[C@]12CC3(C)C [(−)-α-neoclovene]           0.00
3  C=C(C)C1CCC2(C)OC2C1 (single isomer, unassigned; (+)) [(+)-limonene oxide]           0.00
4  C=C1[C@H]2CC[C@@H]3[C@H]2C(C)(C)CCC[C@]13C [(+)-longifolene]           0.11
5  C=C(C)[C@H]1CC=C(C)CC1 [(R)-(+)-limonene]           0.00

Reported OR85b response (VUAA1-normalized response) for C=C(C)[C@H]1CC=C(C)CC1 [limonene] : what is it? 0.09

# query: OR85b response (VUAA1-normalized response) of entry CC(C)=CCC/C(C)=C/CC/C(C)=C/CO [e,e-farnesol] 0.08

====

system: Drosophila OR85b (Drosophila melanogaster, UniProt Q9VHQ7)
Construct: expressed in transfected cells
measurement-description: Calcium ion fluorescence (GCaMP6) assay, OR85b stable HEK293 cell line
Format: cell-based
details: OR85b cell line, VOC concentration 10 μM
measure: OR85b response (VUAA1-normalized) at 10 μM

> print(dat)
                                   compound  readout.value
1                               CCCCCCCCC=O           0.00
2    CC/C=C\CCOC(C)=O [Z-3-hexenyl acetate]           0.00
3                              Cc1ccc(C)cc1           0.15
4                                Cc1ccccc1C           0.00
5               CCCOC(C)=O [propyl acetate]           0.00
6                            CCCCCCCCCCCCCC         0.0844
7    C=CC(C)(O)CCC=C(C)C (stereo not drawn)           0.00
8  CC1=CCC23CC1C(C)(C)C2CCC3C (stereo not drawn)           0.00

Request the reported OR85b response (VUAA1-normalized) at 10 μM associated with Cc1cccc(C)c1 0.00

Give the measured OR85b response (VUAA1-normalized) at 10 μM of Cc1ccccc1 . 0.07

Give the measured OR85b response (VUAA1-normalized) at 10 μM of COC(=O)c1ccccc1 [methyl benzoate] . 0.00

Could you share which OR85b response (VUAA1-normalized) at 10 μM value was measured for OCCc1ccccc1 ? 0.0758

====

system: Drosophila OR71a (Drosophila melanogaster, UniProt Q9VUK5)
Construct: expressed in transfected cells
Sequence (Q9VUK5 whole entry): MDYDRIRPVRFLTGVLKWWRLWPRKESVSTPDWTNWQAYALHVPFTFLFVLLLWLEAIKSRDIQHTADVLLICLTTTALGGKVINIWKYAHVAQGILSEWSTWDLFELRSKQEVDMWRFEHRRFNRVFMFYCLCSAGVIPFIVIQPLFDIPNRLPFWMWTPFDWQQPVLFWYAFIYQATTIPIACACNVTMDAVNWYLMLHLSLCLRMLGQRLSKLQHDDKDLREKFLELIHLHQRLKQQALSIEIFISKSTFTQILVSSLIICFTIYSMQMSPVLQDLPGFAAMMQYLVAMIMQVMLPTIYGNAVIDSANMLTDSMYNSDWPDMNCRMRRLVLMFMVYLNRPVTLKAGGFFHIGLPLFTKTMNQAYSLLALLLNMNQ
Sequence (Q9VNB5 whole entry partner): as the sequence (Q9VNB5 whole entry partner) above
measurement-description: Calcium ion fluorescence (GCaMP6) assay, OR71a stable HEK293 cell line
Format: cell-based
details: OR71a cell line; cc. 100 µM; VUAA1-normalized response, mean of biological replicates
Listing of entries alongside the reported Average response.
The answer should be written as a number, with no unit following it.

Quick check: Average response on Drosophila OR71a (Drosophila melanogaster, UniProt Q9VUK5), item CCc1ccccc1 [ethylbenzene] ? 0.0277

Given the entry CC/C=C\CCO [Z3-hexenol] , what Average response was observed with Drosophila OR71a (Drosophila melanogaster, UniProt Q9VUK5)? 0.00

What is its Average response for Drosophila OR71a (Drosophila melanogaster, UniProt Q9VUK5)? Entry: O=Cc1ccccc1 [benzaldehyde] 0.00

// map CCCCCOC(C)=O [pentyl acetate] to recorded Average response (system: Drosophila OR71a (Drosophila melanogaster, UniProt Q9VUK5)) 0.09

Under Drosophila OR71a (Drosophila melanogaster, UniProt Q9VUK5): Average response value of CCCCOC(C)=O [butyl acetate] ? 0.0132

# get_value(readout= Average response, system= Drosophila OR71a (Drosophila melanogaster, UniProt Q9VUK5)) for CCCCCCCCC(CO)CCCCCC (stereo not drawn) [2-hexyl-1-decanol] 0.00

Short answer please: Average response, Drosophila OR71a (Drosophila melanogaster, UniProt Q9VUK5), entry CC(=O)OCCC(C)C [isopentyl acetate] 0.0218

Lab note: need Average response with Drosophila OR71a (Drosophila melanogaster, UniProt Q9VUK5) for entry CCCCCCCCCC=O [decanal] , please look it up. 0.0139

Form: Entry = C=C1CC[C@H]2O[C@]2(C)CC[C@@H]2[C@@H]1CC2(C)C [(-)-caryophyllene oxide] | System = Drosophila OR71a (Drosophila melanogaster, UniProt Q9VUK5) | Average response = ____ 0.0744

For Drosophila OR71a (Drosophila melanogaster, UniProt Q9VUK5), provide Average response of Cc1ccc(C)cc1 [p-xylene] please. 0.00

I'm curious: which Average response was measured for COC(=O)c1ccccc1O [methyl salicylate] tested on Drosophila OR71a (Drosophila melanogaster, UniProt Q9VUK5)? 0.12
